These data points were gathered from PubChem BioAssay AID179.

System: CEM cells HIV-1 protection, formazan growth assay
Experiment: NCI AIDS Antiviral Assay
Settings: measured here: growth of uninfected CEM cells
measured_attribute: IC50

In [3]: df
Out[3]:
                                    compound     result
 0  COc1cc2c(cc1OC)[N+]1(C)CCC3OCCC4C[N+]5(C)CCC26C5CC4C3C61 (stereo unspecified)   > 372 µM
 1                    S=c1cn[nH]c2ccc(S)cc12     102 µM
 2  N#Cc1c(N)nc(SCc2ccccc2)c(C#N)c1-c1ccc(O)cc1      10 µM
 3  O=C1c2cccc3cc([N+](=O)[O-])cc(c23)C(=O)N1c1ccc(OCCN2CCCC2)cc1    5.62 µM
 4  CCOC(=O)C1(C(=O)OCC)Cc2c([nH]c3ccccc23)CN1C(=O)c1ccccc1  > 22.4 µM
 5            CC1(C)CN=C(Nc2ccc(F)c(Cl)c2)S1   > 200 µM
 6                 CN(CCO)c1nc(N)cc(=O)[nH]1  > 1350 µM
 7           N#Cc1ccc(Nc2cnc3cc(N)ccc3n2)cc1    > 20 µM
 8  Nc1nc(N)c(-c2cccc(C(F)(F)F)c2)c(Cc2cccc(C(F)(F)F)c2)n1   0.759 µM
 9        CNC(=O)c1ccccc1CNC(=S)Nc1cccc(C)c1   > 200 µM
10   COc1cc(C=O)c(-c2cc(OC)c(OC)cc2C=O)cc1OC  > 44.7 µM
